# measurement_target: T1, EGFR-Fc fusion protein (recombinant EGFR extracellular region-Fc) (human, UniProt P00533 25-645)
# T1 construct: extracellular domain; not shown: Fc part supplied by vector pABG1
# experimental_details: BLI ForteBio QKe, biotinylated EGFR-Fc on streptavidin sensor, antibody 20 nM; fold reduction of affinity, parent Ame55 = 1;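 note: parent antibody affinity set as 1, with values giving the fold drop in affinity of each mutant antibody relative to that parent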
measure_name: Affinity change

binder	Affinity change
Ame55 mutant, light chain 88A (antibody, V domains shown, Mutant of Ame55) VH: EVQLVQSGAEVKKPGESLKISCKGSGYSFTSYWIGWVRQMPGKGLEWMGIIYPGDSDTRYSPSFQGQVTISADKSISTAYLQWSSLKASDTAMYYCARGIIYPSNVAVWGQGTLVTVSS VL: SYELTQPPSVSVAPGQTARITCSGDALGDKYASWYQQKPGQAPVLVIYEDSKRPSGIPERFSGSNSGNTATLTISGTQAEDEADYYCAVWDGDWGMPVFGGGTKLTVLG	> 10 fold
Ame55 mutant, light chain 29E (antibody, V domains shown, Mutant of Ame55) VH: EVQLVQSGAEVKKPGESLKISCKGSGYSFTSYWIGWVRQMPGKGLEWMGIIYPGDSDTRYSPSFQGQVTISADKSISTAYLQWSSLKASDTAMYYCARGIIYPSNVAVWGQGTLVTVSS VL: SYELTQPPSVSVAPGQTARITCSGDALGEKYASWYQQKPGQAPVLVIYEDSKRPSGIPERFSGSNSGNTATLTISGTQAEDEADYYCSVWDGDWGMPVFGGGTKLTVLG	> 100 fold
Ame55 mutant, heavy chain 54A (antibody, V domains shown, Mutant of Ame55) VH: EVQLVQSGAEVKKPGESLKISCKGSGYSFTSYWIGWVRQMPGKGLEWMGIIYPADSDTRYSPSFQGQVTISADKSISTAYLQWSSLKASDTAMYYCARGIIYPSNVAVWGQGTLVTVSS VL: SYELTQPPSVSVAPGQTARITCSGDALGDKYASWYQQKPGQAPVLVIYEDSKRPSGIPERFSGSNSGNTATLTISGTQAEDEADYYCSVWDGDWGMPVFGGGTKLTVLG	> 10 fold
Ame55 mutant, heavy chain 58A (antibody, V domains shown, Mutant of Ame55) VH: EVQLVQSGAEVKKPGESLKISCKGSGYSFTSYWIGWVRQMPGKGLEWMGIIYPGDSDARYSPSFQGQVTISADKSISTAYLQWSSLKASDTAMYYCARGIIYPSNVAVWGQGTLVTVSS VL: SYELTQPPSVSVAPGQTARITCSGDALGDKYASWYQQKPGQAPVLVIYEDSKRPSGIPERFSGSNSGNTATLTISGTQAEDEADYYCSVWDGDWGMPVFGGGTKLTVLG	> 10 fold

// switching to the query binder
-- ask Reported Affinity change, binder Ame55 mutant, heavy chain 59N (antibody, V domains shown, Mutant of Ame55) VH: EVQLVQSGAEVKKPGESLKISCKGSGYSFTSYWIGWVRQMPGKGLEWMGIIYPGDSDTNYSPSFQGQVTISADKSISTAYLQWSSLKASDTAMYYCARGIIYPSNVAVWGQGTLVTVSS VL: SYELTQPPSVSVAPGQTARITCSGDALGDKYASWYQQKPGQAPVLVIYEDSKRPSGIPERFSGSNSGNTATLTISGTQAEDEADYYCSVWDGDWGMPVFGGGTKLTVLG : ____
-- reply > 10 fold
